Overview of reported binding signal across a group of sequences:
- subject of test: RELA (p65) subunit of heterodimer;p52 subunit (Homo sapiens;Homo sapiens, UniProt Q04206;Q00653 1-307;4-332)
- Sequence (Q04206 1-307, chain 1 of 2): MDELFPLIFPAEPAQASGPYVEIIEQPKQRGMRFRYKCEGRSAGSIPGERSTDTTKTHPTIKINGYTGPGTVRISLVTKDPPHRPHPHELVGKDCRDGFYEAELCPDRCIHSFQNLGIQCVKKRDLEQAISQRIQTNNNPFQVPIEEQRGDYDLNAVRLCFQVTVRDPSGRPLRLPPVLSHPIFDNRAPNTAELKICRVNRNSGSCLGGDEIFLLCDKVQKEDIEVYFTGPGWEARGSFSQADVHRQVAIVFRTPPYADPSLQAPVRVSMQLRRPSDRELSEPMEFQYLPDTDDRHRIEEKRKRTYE
- Sequence (Q00653 4-332, chain 2 of 2): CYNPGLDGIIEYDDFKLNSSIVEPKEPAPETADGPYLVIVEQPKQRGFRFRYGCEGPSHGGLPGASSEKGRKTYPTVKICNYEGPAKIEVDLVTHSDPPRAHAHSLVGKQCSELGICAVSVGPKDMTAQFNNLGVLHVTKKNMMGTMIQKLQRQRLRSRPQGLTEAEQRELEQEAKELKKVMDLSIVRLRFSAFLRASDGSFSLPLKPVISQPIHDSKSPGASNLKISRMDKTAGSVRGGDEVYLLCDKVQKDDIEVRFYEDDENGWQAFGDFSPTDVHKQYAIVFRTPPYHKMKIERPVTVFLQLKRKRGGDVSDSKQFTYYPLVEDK
- protocol summary: protein binding microarray; high values mean tight binding
- test context: dsDNA, one strand shown

[
  {
    "query sequence": "AGGTTACCCCT",
    "unit label": "z-score",
    "binding signal": 0.804
  },
  {
    "query sequence": "GAATAAGTCCC",
    "unit label": "z-score",
    "binding signal": 0.993
  },
  {
    "query sequence": "AGGTGGTCCCT",
    "unit label": "z-score",
    "binding signal": 0.558
  },
  {
    "query sequence": "AAGTGGGTCCC",
    "unit label": "z-score",
    "binding signal": -0.433
  },
  {
    "query sequence": "CAGTGGTCCCC",
    "unit label": "z-score",
    "binding signal": 0.212
  },
  {
    "query sequence": "CGAGATTTCCC",
    "unit label": "z-score",
    "binding signal": 1.06
  },
  {
    "query sequence": "CGGAGTATCCC",
    "unit label": "z-score",
    "binding signal": -0.0559
  },
  {
    "query sequence": "GGAGAAGTCCT",
    "unit label": "z-score",
    "binding signal": -0.585
  },
  {
    "query sequence": "AGATTCTTCCT",
    "unit label": "z-score",
    "binding signal": -0.896
  },
  {
    "query sequence": "CGGTGTCTCCC",
    "unit label": "z-score",
    "binding signal": 0.211
  },
  {
    "query sequence": "GGATGGCTCCT",
    "unit label": "z-score",
    "binding signal": -1.08
  },
  {
    "query sequence": "AAGTGGCCCCC",
    "unit label": "z-score",
    "binding signal": 0.0039
  },
  {
    "query sequence": "AAGATAATCCT",
    "unit label": "z-score",
    "binding signal": -0.884
  },
  {
    "query sequence": "CGGGGTTCCCC",
    "unit label": "z-score",
    "binding signal": 2.64
  },
  {
    "query sequence": "AGAATGACCCC",
    "unit label": "z-score",
    "binding signal": -0.287
  },
  {
    "query sequence": "GGATATCTCCC",
    "unit label": "z-score",
    "binding signal": 0.0232
  },
  {
    "query sequence": "AGGTGCGTCCT",
    "unit label": "z-score",
    "binding signal": -0.633
  },
  {
    "query sequence": "CGGTGAGCCCC",
    "unit label": "z-score",
    "binding signal": 0.0767
  },
  {
    "query sequence": "CAGAATTCCCC",
    "unit label": "z-score",
    "binding signal": 2.29
  },
  {
    "query sequence": "GAGGGCACCCT",
    "unit label": "z-score",
    "binding signal": -0.74
  },
  {
    "query sequence": "CGAGTTTCCCT",
    "unit label": "z-score",
    "binding signal": 1.16
  },
  {
    "query sequence": "GGGGGTGCCCC",
    "unit label": "z-score",
    "binding signal": 2.88
  },
  {
    "query sequence": "CGGGACCCCCT",
    "unit label": "z-score",
    "binding signal": 0.923
  },
  {
    "query sequence": "GGAGGGATCCT",
    "unit label": "z-score",
    "binding signal": -0.58
  },
  {
    "query sequence": "GAGGGCATCCC",
    "unit label": "z-score",
    "binding signal": -0.398
  },
  {
    "query sequence": "CGGGGAATCCC",
    "unit label": "z-score",
    "binding signal": 2.81
  },
  {
    "query sequence": "GGAGGGTCCCT",
    "unit label": "z-score",
    "binding signal": 0.819
  },
  {
    "query sequence": "AAGAGCTTCCC",
    "unit label": "z-score",
    "binding signal": -0.49
  },
  {
    "query sequence": "CAGGAGGTCCT",
    "unit label": "z-score",
    "binding signal": -0.822
  },
  {
    "query sequence": "CAAGTCACCCC",
    "unit label": "z-score",
    "binding signal": -0.613
  },
  {
    "query sequence": "GGGGGCCTCCC",
    "unit label": "z-score",
    "binding signal": 1.91
  },
  {
    "query sequence": "CGGTTCATCCT",
    "unit label": "z-score",
    "binding signal": -0.9
  },
  {
    "query sequence": "AAATAGATCCC",
    "unit label": "z-score",
    "binding signal": -0.554
  },
  {
    "query sequence": "CGGGTATCCCC",
    "unit label": "z-score",
    "binding signal": 2.01
  },
  {
    "query sequence": "GGAAGAGCCCT",
    "unit label": "z-score",
    "binding signal": -0.503
  },
  {
    "query sequence": "AGAAATACCCT",
    "unit label": "z-score",
    "binding signal": 1.35
  },
  {
    "query sequence": "CGGGACTCCCC",
    "unit label": "z-score",
    "binding signal": 1.9
  },
  {
    "query sequence": "GGGGAGGTCCT",
    "unit label": "z-score",
    "binding signal": 0.847
  },
  {
    "query sequence": "AGAGGCCTCCT",
    "unit label": "z-score",
    "binding signal": -1.07
  },
  {
    "query sequence": "GAGAGACTCCT",
    "unit label": "z-score",
    "binding signal": -1.21
  },
  {
    "query sequence": "AAGGGCGTCCT",
    "unit label": "z-score",
    "binding signal": -0.909
  },
  {
    "query sequence": "GGATGACTCCC",
    "unit label": "z-score",
    "binding signal": -0.701
  },
  {
    "query sequence": "GAAGATACCCT",
    "unit label": "z-score",
    "binding signal": 0.0853
  },
  {
    "query sequence": "CAAAAATCCCC",
    "unit label": "z-score",
    "binding signal": 2.3
  },
  {
    "query sequence": "GAGAATTCCCT",
    "unit label": "z-score",
    "binding signal": 1.6
  },
  {
    "query sequence": "CAATGAATCCC",
    "unit label": "z-score",
    "binding signal": -0.353
  },
  {
    "query sequence": "GAAGACCTCCT",
    "unit label": "z-score",
    "binding signal": -0.909
  },
  {
    "query sequence": "CGATTAATCCC",
    "unit label": "z-score",
    "binding signal": -0.137
  },
  {
    "query sequence": "GAGATTGCCCC",
    "unit label": "z-score",
    "binding signal": 0.468
  },
  {
    "query sequence": "AGAATGTTCCT",
    "unit label": "z-score",
    "binding signal": -0.735
  },
  {
    "query sequence": "GAATGGATCCC",
    "unit label": "z-score",
    "binding signal": -0.763
  },
  {
    "query sequence": "AAGGTGTCCCT",
    "unit label": "z-score",
    "binding signal": 0.967
  },
  {
    "query sequence": "CAGTACCCCCC",
    "unit label": "z-score",
    "binding signal": 0.96
  },
  {
    "query sequence": "AGAAAGTCCCC",
    "unit label": "z-score",
    "binding signal": 1.96
  },
  {
    "query sequence": "AAAAGGTCCCC",
    "unit label": "z-score",
    "binding signal": 0.753
  },
  {
    "query sequence": "GAGGACGTCCC",
    "unit label": "z-score",
    "binding signal": 0.262
  },
  {
    "query sequence": "GAGGAGCTCCT",
    "unit label": "z-score",
    "binding signal": -0.927
  },
  {
    "query sequence": "AGATGAATCCT",
    "unit label": "z-score",
    "binding signal": -0.972
  },
  {
    "query sequence": "CGGTAGTCCCC",
    "unit label": "z-score",
    "binding signal": 1.31
  },
  {
    "query sequence": "GAGTATATCCT",
    "unit label": "z-score",
    "binding signal": -0.768
  },
  {
    "query sequence": "CGAAGTGTCCT",
    "unit label": "z-score",
    "binding signal": -0.797
  },
  {
    "query sequence": "AAATGACCCCT",
    "unit label": "z-score",
    "binding signal": 0.303
  },
  {
    "query sequence": "GAAAACATCCC",
    "unit label": "z-score",
    "binding signal": -0.0683
  },
  {
    "query sequence": "AGAATCCCCCC",
    "unit label": "z-score",
    "binding signal": 2.29
  },
  {
    "query sequence": "GAAGTCTTCCC",
    "unit label": "z-score",
    "binding signal": -0.339
  },
  {
    "query sequence": "AGGTTTGTCCC",
    "unit label": "z-score",
    "binding signal": 0.918
  },
  {
    "query sequence": "CAGTACGCCCT",
    "unit label": "z-score",
    "binding signal": -0.662
  },
  {
    "query sequence": "CGGAGGCCCCC",
    "unit label": "z-score",
    "binding signal": 0.175
  },
  {
    "query sequence": "CAGGGATCCCC",
    "unit label": "z-score",
    "binding signal": 1.23
  },
  {
    "query sequence": "AAATAAACCCT",
    "unit label": "z-score",
    "binding signal": 0.045
  },
  {
    "query sequence": "GGAAACTCCCC",
    "unit label": "z-score",
    "binding signal": 2.23
  },
  {
    "query sequence": "GAAAGAATCCT",
    "unit label": "z-score",
    "binding signal": -0.922
  },
  {
    "query sequence": "GAGGAATCCCT",
    "unit label": "z-score",
    "binding signal": 0.532
  },
  {
    "query sequence": "GGGTAACCCCT",
    "unit label": "z-score",
    "binding signal": 1.8
  },
  {
    "query sequence": "CAAAGTTTCCT",
    "unit label": "z-score",
    "binding signal": -0.494
  },
  {
    "query sequence": "CAAGGTATCCC",
    "unit label": "z-score",
    "binding signal": -0.575
  },
  {
    "query sequence": "CGGTTTTTCCC",
    "unit label": "z-score",
    "binding signal": 1.88
  },
  {
    "query sequence": "AAGTTTCCCCT",
    "unit label": "z-score",
    "binding signal": 2.06
  },
  {
    "query sequence": "AAGAGTACCCT",
    "unit label": "z-score",
    "binding signal": 0.224
  },
  {
    "query sequence": "CGATGACCCCT",
    "unit label": "z-score",
    "binding signal": -0.154
  },
  {
    "query sequence": "CGAATCGCCCT",
    "unit label": "z-score",
    "binding signal": -0.649
  },
  {
    "query sequence": "CGAAGACTCCC",
    "unit label": "z-score",
    "binding signal": -0.618
  },
  {
    "query sequence": "GAAGTTATCCC",
    "unit label": "z-score",
    "binding signal": -0.235
  },
  {
    "query sequence": "CAGTTTGCCCC",
    "unit label": "z-score",
    "binding signal": 0.571
  }
]
